The reported measurements were obtained from patent US7423177B2.

I'd appreciate it if you could supply IC50 values for the items below.
- Target under test: RAGE (sRAGE) binding to S100b (Homo sapiens)
- Construct: extracellular domain can be isolated by proteolysis of RAGE to generate soluble RAGE (sRAGE) comprised of the V and C domains
- Sequence (Q15109 23-342 limits assumed): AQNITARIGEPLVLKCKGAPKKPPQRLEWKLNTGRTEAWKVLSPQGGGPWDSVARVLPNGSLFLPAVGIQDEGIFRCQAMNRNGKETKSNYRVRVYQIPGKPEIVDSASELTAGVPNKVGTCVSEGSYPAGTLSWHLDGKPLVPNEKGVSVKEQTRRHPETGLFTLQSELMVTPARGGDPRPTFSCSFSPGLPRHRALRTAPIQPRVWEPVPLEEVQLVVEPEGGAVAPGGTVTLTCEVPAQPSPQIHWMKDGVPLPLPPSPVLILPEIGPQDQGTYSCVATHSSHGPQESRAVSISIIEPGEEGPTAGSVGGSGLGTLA
- Test method notes: ELISA assay: inhibition of sRAGE binding to plate-bound S100b
- Condition: ligand S100b coated on plate, concentration at which 50% signal has been inhibited, read-out: ELISA Assay IC50 (μM) S-100b
- Protocol: This method is also described and claimed in co-pending U.S. Ser. No. 09/799,152 filed Mar. 5, 2001. […] to 5 mL 50 mM imidazole buffer saline (pH 7.2) containing 0.2% bovine serum albumin and 1 mM Ca2Cl2. […] The reaction is quenched with 10 μL of stop solution (0.5 N NaOH in 50% ethanol) and the absorbance is measured spectrophotometrically with a microplate reader at 405 nm.
Counter-ions that a name gives are not always drawn.

Measured on RAGE (sRAGE) binding to S100b (Homo sapiens), CCCCOc1cc(OCCCN(CC)CC)ccc1NC(=O)C(CC1CCN(C(=O)OCc2ccccc2)CC1)NC(=O)OCC1c2ccccc2-c2ccccc21 (centres unmarked) [Example 26] has a documented IC50 of 1 to 5 µM

Measured on RAGE (sRAGE) binding to S100b (Homo sapiens), CCN(CC)CCCOc1ccc(NC(=O)CC(N)c2cccc(OC(C)(C)C)c2)c(OCCCN(CC)CC)c1 (centres unmarked) [Example 3] has a documented IC50 of 1 to 5 µM

Measured on RAGE (sRAGE) binding to S100b (Homo sapiens), CCCCOc1cc(C(=O)OCCN(CC)CC)ccc1NC(=O)[C@@H](Cc1ccc(OCc2ccccc2)cc1)n1ccnc1 [Example 7] has a documented IC50 of 0.5 to 1 µM

Measured on RAGE (sRAGE) binding to S100b (Homo sapiens), CCN(CC)CCCOc1ccc(NC(=O)CCc2ccc(OCc3ccccc3)cc2)c(OCCCN(CC)CC)c1 [Example 1] has a documented IC50 of 1 to 5 µM

Measured on RAGE (sRAGE) binding to S100b (Homo sapiens), CCCCOc1cc(OCCCN(CC)CC)ccc1NC(=O)C(CC1CCN(C(=O)OC(C)(C)C)CC1)NC(=O)OCC1c2ccccc2-c2ccccc21 (centres unmarked) [Example 22] has a documented IC50 of 1 to 5 µM

Measured on RAGE (sRAGE) binding to S100b (Homo sapiens), CCN(CC)CCCOc1ccc(NC(=O)CC(NC(C)C)c2cccc(OC(C)(C)C)c2)c(OCCCN(CC)CC)c1 (centres unmarked) [Example 12] has a documented IC50 of 1 to 5 µM

Measured on RAGE (sRAGE) binding to S100b (Homo sapiens), CCN(CC)CCCOc1ccc(NC(=O)CC(NC(=O)OCC2c3ccccc3-c3ccccc32)c2ccccc2OC(C)(C)C)c(OCCCN(CC)CC)c1 (centres unmarked) [Example 10] has a documented IC50 of 0.5 to 1 µM

Measured on RAGE (sRAGE) binding to S100b (Homo sapiens), CCN(CC)CCCOc1ccc(N(Cc2ccccc2)C(=O)[C@@H](Cc2ccc(OCc3ccccc3)cc2)NC(=O)OC(C)(C)C)cc1 [Example 13] has a documented IC50 of 5 to 10 µM

Measured on RAGE (sRAGE) binding to S100b (Homo sapiens), CCN(CC)CCCOc1ccc(NC(=O)CC(NC(=O)OCC2c3ccccc3-c3ccccc32)c2ccc(OC(C)(C)C)cc2)c(OCCCN(CC)CC)c1 (centres unmarked) [Example 8] has a documented IC50 of 0.5 to 1 µM

Measured on RAGE (sRAGE) binding to S100b (Homo sapiens), CCCCOc1cc(OCCCN(CC)CC)ccc1NC(=O)C(CC1CCN(C(=O)c2ccccc2)CC1)NC(=O)OCC1c2ccccc2-c2ccccc21 (centres unmarked) [Example 27] has a documented IC50 of 1 to 5 µM

Measured on RAGE (sRAGE) binding to S100b (Homo sapiens), CCCCOc1cc(OCCCN(CC)CC)ccc1NC(=O)C(CC1CCNCC1)NC(=O)OCC1c2ccccc2-c2ccccc21 (centres unmarked) [Example 23] has a documented IC50 of 0.5 to 1 µM

Measured on RAGE (sRAGE) binding to S100b (Homo sapiens), CCCCN(C(=O)[C@H](N)Cc1ccc(OCc2ccccc2)cc1)c1cccc(OCCCN(CC)CC)c1 [Example 21] has a documented IC50 of 1 to 5 µM

Measured on RAGE (sRAGE) binding to S100b (Homo sapiens), CCN(CC)CCCOc1ccc(N(CC2CCCCC2)C(=O)[C@H](N)Cc2ccc(OCc3ccccc3)cc2)cc1 [Example 16] has a documented IC50 of 1 to 5 µM

Measured on RAGE (sRAGE) binding to S100b (Homo sapiens), CCN(CC)CCCOc1ccc(N(CC2CCCC2)C(=O)[C@H](N)Cc2ccc(OCc3ccccc3)cc2)cc1 [Example 17] has a documented IC50 of 5 to 10 µM

Measured on RAGE (sRAGE) binding to S100b (Homo sapiens), CCN(CC)CCCOc1ccc(NC(=O)CC(N)c2ccc(OC(C)(C)C)cc2)c(OCCCN(CC)CC)c1 (centres unmarked) [Example 9] has a documented IC50 of 1 to 5 µM

Measured on RAGE (sRAGE) binding to S100b (Homo sapiens), CCCCOc1cc(OCCCN(CC)CC)ccc1NC(=O)C(N)CC1CCN(Cc2ccccc2)CC1 (centres unmarked) [Example 25] has a documented IC50 of 5 to 10 µM

Measured on RAGE (sRAGE) binding to S100b (Homo sapiens), CCCCN(C(=O)[C@@H](Cc1ccc(OCc2ccccc2)cc1)NC(=O)OC(C)(C)C)c1cccc(OCCCN(CC)CC)c1 [Example 20] has a documented IC50 of 1 to 5 µM

Measured on RAGE (sRAGE) binding to S100b (Homo sapiens), CCN(CC)CCCOc1ccc(NC(=O)[C@@H]2C[C@@H](OC(C)(C)C)CN2)c(OCCCN(CC)CC)c1 [Example 5] has a documented IC50 of 1 to 5 µM

Measured on RAGE (sRAGE) binding to S100b (Homo sapiens), CCN(CC)CCCOc1ccc(NC(=O)CC(NC(=O)OCC2c3ccccc3-c3ccccc32)c2cccc(OC(C)(C)C)c2)c(OCCCN(CC)CC)c1 (centres unmarked) [Example 2] has a documented IC50 of < 0.5 µM

Measured on RAGE (sRAGE) binding to S100b (Homo sapiens), CCCCOc1cc(OCCCN(CC)CC)ccc1NC(=O)C(CC1CCN(C(=O)c2ccccc2)CC1)NC(=O)c1ccccc1 (centres unmarked) [Example 28] has a documented IC50 of 5 to 10 µM

Measured on RAGE (sRAGE) binding to S100b (Homo sapiens), CCCCOc1cc(C(=O)OCCN(CC)CC)ccc1NC(=O)[C@@H]1Cc2ccccc2CN1 [Example 6, Dihydrochloride] has a documented IC50 of 10 to 20 µM

Measured on RAGE (sRAGE) binding to S100b (Homo sapiens), CCCCN(C(=O)[C@H](N)Cc1ccc(OCc2ccccc2)cc1)c1ccc(OCCCN(CC)CC)cc1 [Example 19] has a documented IC50 of 1 to 5 µM

Measured on RAGE (sRAGE) binding to S100b (Homo sapiens), CCCCOc1cc(OCCCN(CC)CC)ccc1NC(=O)C(CC1CCN(Cc2ccccc2)CC1)NC(=O)OCC1c2ccccc2-c2ccccc21 (centres unmarked) [Example 24] has a documented IC50 of 0.5 to 1 µM

Measured on RAGE (sRAGE) binding to S100b (Homo sapiens), CCN(CC)CCCOc1ccc(NC(=O)CC(N)c2ccccc2OC(C)(C)C)c(OCCCN(CC)CC)c1 (centres unmarked) [Example 11] has a documented IC50 of 1 to 5 µM

Measured on RAGE (sRAGE) binding to S100b (Homo sapiens), CCCCOc1cc(OCCCN(CC)CC)ccc1NC(=O)C(CC1CCCNC1)NC(=O)OCC1c2ccccc2-c2ccccc21 (centres unmarked) [Example 30] has a documented IC50 of 0.5 to 1 µM

Measured on RAGE (sRAGE) binding to S100b (Homo sapiens), CCCCOc1cc(C(=O)OCCN(CC)CC)ccc1NC(=O)C(N)CC1CCOCC1 (centres unmarked) [Example 4, Dihydrochloride] has a documented IC50 of 10 to 20 µM

Measured on RAGE (sRAGE) binding to S100b (Homo sapiens), CCCCN(C(=O)[C@@H](Cc1ccc(OCc2ccccc2)cc1)NC(=O)OC(C)(C)C)c1ccc(OCCCN(CC)CC)cc1 [Example 18] has a documented IC50 of 1 to 5 µM

Measured on RAGE (sRAGE) binding to S100b (Homo sapiens), CCCCOc1cc(OCCCN(CC)CC)ccc1NC(=O)C(CC1CCCN(C(=O)OC(C)(C)C)C1)NC(=O)OCC1c2ccccc2-c2ccccc21 (centres unmarked) [Example 29] has a documented IC50 of 1 to 5 µM

Measured on RAGE (sRAGE) binding to S100b (Homo sapiens), CCN(CC)CCCOc1ccc(N(CC2CCCC2)C(=O)[C@@H](Cc2ccc(OCc3ccccc3)cc2)NC(=O)OC(C)(C)C)cc1 [Example 14] has a documented IC50 of 1 to 5 µM
